Numbers sourced from ChEMBL document CHEMBL5365407.

Exercise: state measured pIC50 for each of the compounds provided.
# Test system: MGC-803
# protocol_summary: cells
# recorded_conditions: Homo sapiens, MGC-803, 72 h
# Description: Antiproliferative activity against human MGC-803 cells measured after 72 hrs by MTT assay
One number for each entry, as −log10 of the molar value.

COc1cccc(Nc2nc(SCC(=O)N3CCN(CCOc4no[n+]([O-])c4S(=O)(=O)c4ccccc4)CC3)nc(-c3ccccc3)c2C#N)c1 :: 5.81

Provide the reported pIC50 of each entry below, same order.
1. COc1ccccc1Nc1nc(SCC(=O)N2CCN(CCOc3no[n+]([O-])c3S(=O)(=O)c3ccccc3)CC2)nc(-c2ccccc2)c1C#N
2. CCCc1cccc(Nc2nc(SCC(=O)N3CCN(CCOc4no[n+]([O-])c4S(=O)(=O)c4ccccc4)CC3)nc(-c3ccccc3)c2C#N)c1
3. N#Cc1c(Nc2ccccc2)nc(SCC(=O)OCCCCCOc2no[n+]([O-])c2S(=O)(=O)c2ccccc2)nc1-c1ccccc1
4. N#Cc1c(Nc2ccccc2)nc(SCC(=O)NCCCCCOc2no[n+]([O-])c2S(=O)(=O)c2ccccc2)nc1-c1ccccc1
5. C=CC(=O)Nc1cccc(Nc2nc(SCC(=O)N3CCN(CCOc4no[n+]([O-])c4S(=O)(=O)c4ccccc4)CC3)nc(-c3ccccc3)c2C#N)c1
6. CCc1ccc(Nc2nc(SCC(=O)N3CCN(CCOc4no[n+]([O-])c4S(=O)(=O)c4ccccc4)CC3)nc(-c3ccccc3)c2C#N)cc1

Result:
1. 5.84
2. 5.72
3. 5.42
4. 5.66
5. 5.85
6. 5.84

Provide the reported pIC50 of each entry below, same order.
1. CCN1CCN(c2nc(SCC(=O)N3CCN(CCOc4no[n+]([O-])c4S(=O)(=O)c4ccccc4)CC3)nc(-c3ccccc3)c2C#N)CC1
2. N#Cc1c(Nc2ccccc2F)nc(SCC(=O)N2CCN(CCOc3no[n+]([O-])c3S(=O)(=O)c3ccccc3)CC2)nc1-c1ccccc1
3. CCCc1ccccc1Nc1nc(SCC(=O)N2CCN(CCOc3no[n+]([O-])c3S(=O)(=O)c3ccccc3)CC2)nc(-c2ccccc2)c1C#N

Result:
[5.91, 5.84, 5.69]

Provide the reported pIC50 of each entry below, same order.
1. CCc1cccc(Nc2nc(SCC(=O)N3CCN(CCOc4no[n+]([O-])c4S(=O)(=O)c4ccccc4)CC3)nc(-c3ccccc3)c2C#N)c1
2. Cc1ccccc1Nc1nc(SCC(=O)N2CCN(CCOc3no[n+]([O-])c3S(=O)(=O)c3ccccc3)CC2)nc(-c2ccccc2)c1C#N
3. N#Cc1c(Nc2ccc(F)cc2)nc(SCC(=O)N2CCN(CCOc3no[n+]([O-])c3S(=O)(=O)c3ccccc3)CC2)nc1-c1ccccc1
4. N#Cc1c(Nc2ccc(Cl)c(Cl)c2)nc(SCC(=O)N2CCN(CCOc3no[n+]([O-])c3S(=O)(=O)c3ccccc3)CC2)nc1-c1ccccc1

Result:
5.95
5.80
5.81
5.73

Provide the reported pIC50 of each entry below, same order.
1. N#Cc1c(Nc2ccccc2)nc(SCC(=O)OCCCOc2no[n+]([O-])c2S(=O)(=O)c2ccccc2)nc1-c1ccccc1
2. CCc1ccccc1Nc1nc(SCC(=O)N2CCN(CCOc3no[n+]([O-])c3S(=O)(=O)c3ccccc3)CC2)nc(-c2ccccc2)c1C#N
3. N#Cc1c(Nc2ccccc2)nc(SCC(=O)N2CCN(CCOc3no[n+]([O-])c3S(=O)(=O)c3ccccc3)CC2)nc1-c1ccccc1

Result:
1: 5.14; 2: 5.70; 3: 5.70

Provide the reported pIC50 of each entry below, same order.
1. N#Cc1c(Nc2ccc(Cl)cc2)nc(SCC(=O)N2CCN(CCOc3no[n+]([O-])c3S(=O)(=O)c3ccccc3)CC2)nc1-c1ccccc1
2. CCOc1ccc(Nc2nc(SCC(=O)N3CCN(CCOc4no[n+]([O-])c4S(=O)(=O)c4ccccc4)CC3)nc(-c3ccccc3)c2C#N)cc1
3. O=S(=O)(c1ccccc1)c1c(OCCN2CCNCC2)no[n+]1[O-]
4. N#Cc1c(Nc2ccccc2)nc(SCC(=O)OCCc2ccc(Oc3no[n+]([O-])c3S(=O)(=O)c3ccccc3)cc2)nc1-c1ccccc1
5. N#Cc1c(Nc2ccc(F)c(Cl)c2)nc(SCC(=O)N2CCN(CCOc3no[n+]([O-])c3S(=O)(=O)c3ccccc3)CC2)nc1-c1ccccc1
6. N#Cc1c(Nc2ccccc2)nc(SCC(=O)N2CCC(Oc3no[n+]([O-])c3S(=O)(=O)c3ccccc3)C2)nc1-c1ccccc1 (configuration not stated)

Result:
5.69
5.53
5.17
4.73
5.97
5.45

Provide the reported pIC50 of each entry below, same order.
1. COc1cc(Nc2nc(SCC(=O)N3CCN(CCOc4no[n+]([O-])c4S(=O)(=O)c4ccccc4)CC3)nc(-c3ccccc3)c2C#N)cc(OC)c1OC
2. N#Cc1c(Nc2cccc(C(F)(F)F)c2)nc(SCC(=O)N2CCN(CCOc3no[n+]([O-])c3S(=O)(=O)c3ccccc3)CC2)nc1-c1ccccc1

Result:
[6.02, 5.90]

In plain terms, CN1CCN(c2nc(SCC(=O)N3CCN(CCOc4no[n+]([O-])c4S(=O)(=O)c4ccccc4)CC3)nc(-c3ccccc3)c2C#N)CC1 has a documented pIC50 of 5.84
